pIC50: −log10 of the molar value.
Entries with their measured pIC50, system HDAC-1 (Homo sapiens, UniProt Q13547):

[ask] I am curious: what pIC50 value has been reported for Nc1ccccc1NC(=O)c1ccc(N2CC[C@H](NC(=O)OC3CCOCC3)C2)cc1 ?
[reply] ≥ 6.30

[ask] Can you handle Nc1ccccc1NC(=O)c1ccc(N2CC[C@H](NC(=O)OCCN3CCOCC3)C2)cc1 next?
[reply] ≥ 6.30

[ask] // repeat for CC(C)OC(=O)N[C@H]1CCN(c2ccc(C(=O)Nc3ccccc3N)cc2)C1 and report
[reply] ≥ 6.30

[ask] Item: COC(=S)N[C@H]1CCN(c2ccc(C(=O)Nc3ccccc3N)cc2)C1
[reply] ≥ 7.00

[ask] Moving on to the next compound: Nc1ccccc1NC(=O)c1ccc(N2CC[C@H](NC(=O)OCc3ccoc3)C2)cc1
[reply] ≥ 7.00

[ask] Thanks! And Nc1ccccc1NC(=O)c1ccc(N2CC[C@H](NC(=O)OCC(F)(F)F)C2)cc1 ?
[reply] ≥ 6.30

[ask] Proceed to COCCOC(=O)N[C@H]1CCN(c2ncc(C(=O)Nc3ccccc3N)cn2)C1
[reply] ≥ 6.00

---

Quick note: these are pIC50 numbers for system: HDAC-2 (Homo sapiens)
Sequence (Q92769 whole entry): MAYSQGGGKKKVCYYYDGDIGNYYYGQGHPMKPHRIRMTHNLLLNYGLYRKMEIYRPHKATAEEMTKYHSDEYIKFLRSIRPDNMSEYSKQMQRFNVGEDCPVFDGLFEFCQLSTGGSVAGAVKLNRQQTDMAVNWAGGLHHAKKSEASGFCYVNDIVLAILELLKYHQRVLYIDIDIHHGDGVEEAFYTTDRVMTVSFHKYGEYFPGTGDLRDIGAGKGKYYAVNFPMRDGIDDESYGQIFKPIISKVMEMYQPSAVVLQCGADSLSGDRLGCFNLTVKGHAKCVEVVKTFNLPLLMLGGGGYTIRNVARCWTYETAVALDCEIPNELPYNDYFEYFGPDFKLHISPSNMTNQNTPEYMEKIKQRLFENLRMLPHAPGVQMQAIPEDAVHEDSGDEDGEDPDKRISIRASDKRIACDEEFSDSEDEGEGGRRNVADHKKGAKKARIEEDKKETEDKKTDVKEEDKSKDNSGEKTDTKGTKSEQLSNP
pIC50: −log10 of the molar value.

[ask] Which pIC50 reading was recorded for the compound COCCOC(=O)N[C@@H]1CCN(c2ccc(C(=O)Nc3ccccc3N)cc2)C1 [Compound 130] ?
[reply] ≥ 5.30

[ask] Now consider CN(C)CCCOC(=O)N[C@H]1CCN(c2ccc(C(=O)Nc3ccccc3N)cc2)C1 [Compound 144] .
[reply] ≥ 6.30

[ask] How about Nc1ccccc1NC(=O)c1ccc(N2CC[C@H](OC(=S)NCCN3CCOCC3)C2)cc1 [Compound 163] ?
[reply] ≥ 5.30
